Tested on: K-562 leukemia
Assay Explanation: NCI tumour cell line growth inhibition, 48 h
Below, each entry is listed alongside its reported GI50.

| Item Smiles | GI50 |
| --- | --- |
| C=CCOc1ccc2c(c1)CC[C@@H]1[C@@H]2CC[C@]2(C)C(=O)/C(=N/O)C[C@@H]12 | 2880 nM |
| C/C(=N\O)c1ccc(Nc2cc(-c3ccccc3)nc3c(O)cccc23)cc1 | 15200 nM |
| C=C(C=O)[C@@H]1CC=C(C=O)CC1 | 1700 nM |
| O=C1COCCN1c1ccc(NCc2cn(Cc3ccc(F)cc3)c3ccccc23)cc1 | 1250 nM |
| Cc1cc(=O)[nH]c2c1C(=O)C(=O)C=C2 | 34300 nM |

----------
Below, each entry is listed alongside its reported TGI.
System: RPMI-8226 leukemia
Assay Explanation: NCI tumour cell line growth inhibition, 48 h
Measured Quantity: TGI

| Compound | Target | Experimental Result |
| --- | --- | --- |
| COc1ccc(Nc2cnc3cc(N)ccc3n2)cc1OC | RPMI-8226 leukemia | 86.2 µM |
| CCOC(=O)/C(C#N)=C/c1[nH]c(C)c(C)c1C | RPMI-8226 leukemia | > 100 µM |
| FC1(F)SC2CCCCCCCCCCC2C1(F)F (centres undefined) | RPMI-8226 leukemia | > 100 µM |
| COc1cc(/C=C/C(=O)c2ccc(SC)cc2)cc(OC)c1OC | RPMI-8226 leukemia | > 100 µM |
| NC(CSC(c1ccccc1)(c1ccccc1)c1ccc(Br)cc1)C(=O)O (centres undefined) | RPMI-8226 leukemia | 22.6 µM |
| CC(=O)SC(C[N+](=O)[O-])c1ccccc1 (centres undefined) | RPMI-8226 leukemia | 5.18 µM |
| CCOC(=O)C1=CN(Cc2ccccc2)C2ON=C(c3ccc(Cl)cc3)C2C1 (centres undefined) | RPMI-8226 leukemia | > 100 µM |
| CN(C)CCNc1nc2c(c(=O)n(C)c(=O)n2C)n1C | RPMI-8226 leukemia | > 100 µM |
| O=C1/C=C/[C@@H](O)[C@@H]2C[C@@H](O)C[C@H]2/C=C/CCCCO1 | RPMI-8226 leukemia | 0.889 µM |
| OC1/C(=C/c2ccccc2)CNC/C1=C\c1ccccc1 (centres undefined) | RPMI-8226 leukemia | > 100 µM |
| COC(=O)c1cc(OCc2cc(OCc3ccc(Br)cc3)cc(OCc3ccc(Br)cc3)c2)cc(OCc2cc(OCc3ccc(Br)cc3)cc(OCc3ccc(Br)cc3)c2)c1 | RPMI-8226 leukemia | > 100 µM |
| CC(C)N=C(NC#N)NS(=O)(=O)c1cnccc1NC1CCCCCCC1 | RPMI-8226 leukemia | > 100 µM |
| CC(=O)Nc1ccc2cc3c(nc2n1)c1cccnc1n3S(=O)(=O)c1ccccc1 | RPMI-8226 leukemia | > 100 µM |
| COc1ccc([C@H]2C=C(c3cc(F)c(Cl)cc3Cl)N=c3s/c(=C\c4ccc(-c5ccc(Cl)cc5Cl)o4)c(=O)n32)cc1 | RPMI-8226 leukemia | > 100 µM |
| CSc1nnc2n1-c1ccccc1SCC2 | RPMI-8226 leukemia | > 100 µM |
| Cc1ccc(S(=O)(=O)N/N=C2/C3CC4CCC2C4C3)cc1 (centres undefined) | RPMI-8226 leukemia | > 100 µM |
| OC1OC2COC(c3ccccc3)OC2C(O)C1O (centres undefined) | RPMI-8226 leukemia | > 100 µM |
| COc1ccc(-c2cc(-c3ccncc3)nc(N)c2-c2ccc(F)cc2)cc1 | RPMI-8226 leukemia | > 100 µM |
| C/C(=N\O)c1ccc(Nc2cc(-c3ccccc3)nc3c(O)cccc23)cc1 | RPMI-8226 leukemia | 30.8 µM |
| COc1ccccc1NC(=O)C(=O)C(C#N)CC(C)(C)C=O (centres undefined) | RPMI-8226 leukemia | > 100 µM |
| FC(F)(F)c1ccc(N=NN2CCCC2)cc1 | RPMI-8226 leukemia | > 100 µM |
| CCn1cc(C(=O)O)c(=O)c2cc(F)c(N3CCNCC3)nc21 | RPMI-8226 leukemia | > 100 µM |
| O=c1oc2ccc([N+](=O)[O-])cc2cc1-c1csc(-c2ccccc2)n1 | RPMI-8226 leukemia | > 100 µM |
| NC(=O)NC(=O)c1cccc(C(=O)NC(N)=O)n1 | RPMI-8226 leukemia | > 100 µM |
| O=C1CN2CCN(CC2)CC(=O)Nc2ccc(cc2)S(=O)(=O)c2ccc(cc2)NC(=O)CN2CCN(CC2)CC(=O)Nc2ccc(cc2)S(=O)(=O)c2ccc(cc2)N1 | RPMI-8226 leukemia | > 80.8 µM |
| CCN(CC)C(=O)CCNC(C)Cc1c[nH]c2ccccc12 (centres undefined) | RPMI-8226 leukemia | > 100 µM |
| O=[N+]([O-])c1cc(C2ON=C(c3ccccc3)N2C23CC4CC(CC(C4)C2)C3)ccc1Cl (centres undefined) | RPMI-8226 leukemia | > 100 µM |
| COc1ccc2c(C(=O)NCCCCCC(=O)O)cc3cc4c(cc3c2c1)OCO4 | RPMI-8226 leukemia | > 100 µM |
| COc1ccc(-c2nc3ccccc3c(=O)[nH]2)cc1OC | RPMI-8226 leukemia | > 100 µM |
| CN=C(NC#N)NCc1ccccc1 | RPMI-8226 leukemia | > 100 µM |
| O=C(c1ccccc1)C(c1ccccc1)C1(O)C(=O)Nc2ccc(Br)cc21 (centres undefined) | RPMI-8226 leukemia | 98.9 µM |
| Nc1ncnc2c1c(-c1ccc(Oc3ccccc3)cc1)nn2C[C@H]1SSC[C@H]1O | RPMI-8226 leukemia | 9.13 µM |
| Cc1cc(=O)[nH]c2c1C(=O)C(=O)C=C2 | RPMI-8226 leukemia | > 100 µM |
| Cc1cc2c(C=O)[nH]nc2c(C#N)c1C | RPMI-8226 leukemia | > 100 µM |
| Cn1cc(C2=C(c3cn(CCCN/C(N)=N\[N+](=O)[O-])c4ccccc34)C(=O)NC2=O)c2ccccc21 | RPMI-8226 leukemia | 14.8 µM |
| O=[N+]([O-])c1ccc(N/N=C\c2ccc(O)cc2O)nc1 | RPMI-8226 leukemia | > 100 µM |
| COC1=C2C[C@](OC)(C#CC=CC#CC2O)CC1(C)C (some centres undefined) | RPMI-8226 leukemia | > 100 µM |
| CCN(CC)C(=O)N1CN(c2ccccc2)C2(CCN(CCCC3(c4ccc(F)cc4)OCCO3)CC2)C1=O | RPMI-8226 leukemia | 30.1 µM |
| CC(=O)Oc1ccc(C2SCc3nc4ccccc4n32)cc1 (centres undefined) | RPMI-8226 leukemia | > 100 µM |

----------
System: SW-620 colon
Assay Explanation: NCI tumour cell line growth inhibition, 48 h; in the data active = GI50 below about 0.43 µM; inactive = the rest
Possible outcomes: active, inactive

| Molecule | Group Label |
| --- | --- |
| COc1cccc(-c2nn(C)c3sc(C(=O)NCCN4CCN(c5ccccc5F)CC4)cc23)c1 | inactive |
| Nc1nc(-c2ccccc2Cl)cc(-c2ccc(Cl)cc2Cl)n1 | inactive |
| COc1ccc2nc3c(cc2c1)C(=O)CC(C(F)(F)F)C3 (stereo unspecified) | inactive |
| COc1ccc2c(c1)cn1c3ccc(OC)cc3[nH]c(=O)c21 | active |
| Cc1cc(=O)[nH]c2c1C(=O)C(=O)C=C2 | inactive |
| c1ccc(Oc2cnc3ccccc3n2)cc1 | inactive |
| CCCCCCCCCCCC(=O)[O][Sn]([CH2]CCC)([CH2]CCC)[CH2]CCC | active |
| CCOc1ccc(-n2cc(-c3ccc(N(C)C)cc3)[n+]3c2CCCCC3)cc1 | inactive |
| CCCCCCOc1ccc(/C=N/Nc2cc(C)nc3ccc(Br)cc23)cc1 | inactive |
| C/C(=N\O)c1ccc(Nc2cc(-c3ccccc3)nc3c(O)cccc23)cc1 | inactive |
| N=C(N)c1ccc(-c2ccc(-c3ccccc3)o2)o1 | inactive |

----------
Tested on: IGROV1 ovarian
Assay Explanation: NCI tumour cell line growth inhibition, 48 h
Measured Quantity: TGI

| Compound | Experimental Result |
| --- | --- |
| Cc1ccc(Sc2cc([N+](=O)[O-])cc(Sc3ccc(C)cc3)c2Sc2ccc(C)cc2)cc1 | > 100 µM |
| [B]C(=O)NC(CC(C)C)C(=O)NC1c2ccsc2C(=O)C1O (stereo not given) (tested in a mixture with another compound) | > 100 µM |
| COc1ccc(/C=N/C2=C(C#N)C(c3ccccc3)c3ccc4ccccc4c3O2)cc1 (stereo not given) | > 100 µM |
| O=C(Nc1ccc(-n2cc(-c3ccncc3)c(-c3ccc(Cl)c(O)c3)n2)cc1)c1ccc(Cl)c(C(F)(F)F)c1 | > 28.4 µM |
| C=C1[C@@H]2CCC(C)(C)[C@H]1CCC(=O)[C@@H]2C(=O)OC | > 100 µM |
| c1ccc2c[n+](Cc3ccnc4ccccc34)ccc2c1 | > 100 µM |
| CSc1nc(NC2OC(CO)C(O)C(O)C2O)c(N)c(=O)[nH]1 (stereo not given) | > 100 µM |
| O=C(NCCOCCO)c1ccc(O)cc1 | > 100 µM |
| CCC1(O)CC(c2ccccc2)N(C)C(c2ccccc2)C1 (stereo not given) | > 100 µM |
| CSc1cc(Cl)c(C)cc1S(=O)(=O)NC(=O)NNc1cnc2ccccc2n1 | > 100 µM |
| CC/C(=C(/c1ccc(Cl)cc1)c1ccc(OCCCN(C)C)cc1)c1ccc(OC)cc1 | 10.8 µM |
| O=C1OC(/C=C/c2ccccc2)C(=O)C1=O (stereo not given) | > 100 µM |
| O=c1c2ccc(Br)cc2nc(-c2ccccc2)n1NC1OC(CO)C(O)C(O)C1O (stereo not given) | > 100 µM |
| CCN(CC)[C@@H]1c2cc3c(cc2C(c2cc(OC)c(O)c(OC)c2)C2C(=O)CO[C@@H]21)OCO3 (stereo not given in full) | > 100 µM |
| Cc1cccc(C)c1NC(=O)/C(CC(=O)CC(c1ccccc1)c1c(O)c2ccccc2oc1=O)=N/O (stereo not given) | > 100 µM |
| COc1ccc(-c2c3c(n(C4OC(COC(C)=O)C(OC(C)=O)C(OC(C)=O)C4OC(C)=O)c(=S)c2C#N)CCCC3)cc1 (stereo not given) | > 100 µM |
| COc1ccc2nc3c(cc2c1)C(=O)CC(C(F)(F)F)C3 (stereo not given) | > 100 µM |
| CCn1cc(C(=O)O)c(=O)c2cc(F)c(N3CCNCC3)nc21 | > 100 µM |
| Nc1c(C(=O)Nc2cccc3ccccc23)sc2nc3c(cc12)CCCCCC3 | > 50 µM |
| COC(=O)C1=C(C(=O)OC)C2CCC1CC2=O (stereo not given) | > 100 µM |
